// data source = PubChem BioAssay

# SYSTEM UNDER TEST: Torsin-1A-interacting protein 1 (Homo sapiens) (UniProt Q5JTV8)
# Sequence (Q5JTV8 whole entry, looked up): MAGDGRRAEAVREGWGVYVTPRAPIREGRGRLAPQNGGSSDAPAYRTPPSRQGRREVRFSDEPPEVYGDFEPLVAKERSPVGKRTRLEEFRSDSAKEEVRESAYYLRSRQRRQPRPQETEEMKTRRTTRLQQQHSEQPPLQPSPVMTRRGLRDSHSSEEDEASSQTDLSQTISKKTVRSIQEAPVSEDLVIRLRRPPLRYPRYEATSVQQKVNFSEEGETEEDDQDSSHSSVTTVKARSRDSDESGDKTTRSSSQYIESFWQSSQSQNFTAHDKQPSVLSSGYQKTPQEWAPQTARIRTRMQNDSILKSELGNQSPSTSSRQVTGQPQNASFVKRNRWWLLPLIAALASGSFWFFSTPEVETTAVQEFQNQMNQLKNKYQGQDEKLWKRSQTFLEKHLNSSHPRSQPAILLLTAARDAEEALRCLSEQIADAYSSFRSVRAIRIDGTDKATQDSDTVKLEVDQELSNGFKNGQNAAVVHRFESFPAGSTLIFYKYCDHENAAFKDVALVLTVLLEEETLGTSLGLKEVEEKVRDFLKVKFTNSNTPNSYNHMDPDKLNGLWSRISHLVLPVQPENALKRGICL
# MEASUREMENT DESCRIPTION: LAP1 binders from COS7 cell lysate, primary screen, small-molecule microarray, 635/667 nm fluorescence (AID 1116)
# PROTOCOL CONDITIONS: COS7-hLAP1 lysate binding, 635 nm fluorescence, higher = more signal
Measured composite z-score, listed per entry for reference.
MEASURED ENDPOINT: composite z-score

smiles_notation=Cc1ccc(S(=O)(=O)N2[C@@H](c3ccccc3)C(C(=O)O)=C[C@H]2C(C)(C)C)cc1 measured_endpoint="composite z-score" val=1.49
smiles_notation=C=CCN1C(=O)[C@@]2(O[C@@H](CCO)[C@H]([Si](C)(C)c3ccc(OC)cc3)[C@H]2C)c2cc(N3CCCCC3=O)ccc21 measured_endpoint="composite z-score" val=0.813
smiles_notation=O=C1c2ccccc2[C@](Cc2ccccc2I)(C(=O)NCCN2CCOCC2)[C@H](c2ccc(CO)cc2)N1Cc1ccccc1C(F)(F)F measured_endpoint="composite z-score" val=0.598
smiles_notation=COc1cc(Cc2cc3c(c(CCc4ccccc4)n2)[Si](C(C)C)(C(C)C)O[C@H]3c2ccccc2)cc(OC)c1OC measured_endpoint="composite z-score" val=0.415

---

# SYSTEM UNDER TEST: Alpha-bungarotoxin (Bungarus multicinctus) (UniProt P60615)
# Sequence (P60615 whole entry, looked up): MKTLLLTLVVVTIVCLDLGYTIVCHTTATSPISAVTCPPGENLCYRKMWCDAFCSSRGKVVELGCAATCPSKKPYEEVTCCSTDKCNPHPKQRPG
# MEASUREMENT DESCRIPTION: alpha-bungarotoxin binders on microarray, profiling panel, artefact control for SMM control protein annotation, biochemical, small-molecule microarray, Alexa647 label, 635/667 nm fluorescence (AID 1117)
# PROTOCOL CONDITIONS: alpha-BTX-A647 binding fluorescence, higher = more signal
Recorded composite z-score split into classes LOW = under 0.3, MEDIUM = from 0.3 up to 1, HIGH = 1 and over

compound="O=C1C2C=CC(C(O)c3ccccn3)N(Nc3ccc([N+](=O)[O-])cc3)C2C(=O)N1c1ccccc1 (stereo not drawn)" assigned_category=HIGH
compound=CC[C@@H](O[Si](C#C[Si](C(C)C)(C(C)C)C(C)C)(C(C)C)C(C)C)c1cn(Cc2cccc(Cl)c2)nn1 assigned_category=MEDIUM
compound=Cc1c(NC(=O)/C(C#N)=C/C=C/c2ccc([N+](=O)[O-])cc2)c(=O)n(-c2ccccc2)n1C assigned_category=HIGH
compound="C[C@]12C(=O)N(CCO)[C@@H]3C(=O)N(c4ccc(Cl)cc4)CC=CC31O[C@@H]1/C=C\\CCCOC(=O)C12 (stereo partly drawn)" assigned_category=LOW
compound=C=CC[C@@]1(C(=O)NCCCOC)N=C(c2ccc(OCCCO)cc2)O[C@@H]1c1ccccc1CN=[N+]=[N-] assigned_category=HIGH
compound=CCOC(=O)C[C@H]1[C@H](OC(=O)c2cc3ccccc3oc2=O)[C@@H](NC(=O)c2ccc(-c3ccccc3)cc2)c2cc(OCCCO)ccc2N1C(=O)Cc1ccc(OC)cc1 assigned_category=MEDIUM
compound=CC(C)[Si]1(C(C)C)OCc2cc(-c3ccc(-c4ccc(Cl)c(Cl)c4)o3)nc(-c3ccc(Oc4ccccc4)cc3)c21 assigned_category=LOW
compound=COCCCNC(=O)[C@@]1(CCC(=O)OC(C)(C)C)N=C(c2ccc(OCCCO)cc2)O[C@H]1c1ccccc1 assigned_category=HIGH
compound=C=C(C(=O)CC[C@@H](OC(=O)c1ccccc1-c1ccccc1C(=O)O)c1cccc(OCCO)c1)C(C)C assigned_category=LOW
compound=COCCOC(=O)N1C(=O)[C@@]2(c3ccccc31)[C@H](C(=O)Nc1nc3ccccc3s1)[C@H]1C(=O)O[C@H](c3ccccc3)[C@H](c3ccccc3)N1[C@@H]2c1ccccc1OCCO assigned_category=HIGH
compound=CCCCC=C[C@@H](NC(=O)C(C)(C)C)c1ccccc1 assigned_category=MEDIUM
compound=CCOC(=O)C[C@H]1[C@H](OC(=O)c2cc3ccccc3oc2=O)[C@@H](NC(=O)Cc2ccc(OC)cc2)c2cc(OCCCO)ccc2N1C(=O)Cc1ccc(OC)cc1 assigned_category=MEDIUM
compound=COc1cc(Cc2cc3c(c(-c4ccccc4)n2)[Si](C(C)C)(C(C)C)OC3)cc(OC)c1OC assigned_category=HIGH
compound="CCN1C(=O)C2CC(=O)C3C(CN(S(=O)(=O)c4ccc(C)cc4)C3c3ccc(C)cc3)C2C1=O (stereo not drawn)" assigned_category=LOW
compound=Cc1ccc(S(=O)(=O)N2[C@@H](c3ccccc3)C(C(=O)O)=C[C@H]2C(C)(C)C)cc1 assigned_category=HIGH
compound="CN1C(=O)C2C=CC(C(O)c3cccs3)N(N(c3ccccc3)c3ccccc3)C2C1=O (stereo not drawn)" assigned_category=HIGH
compound=C=CCN1C(=O)[C@]2(O[C@H](CCO)[C@@H]([Si](C)(C)c3ccc(OC)cc3)[C@@H]2C)c2cc(N3C(=O)c4ccccc4Oc4ccccc43)ccc21 assigned_category=MEDIUM
compound=COc1c(C)cc(-c2nc(-c3ccccc3)c3c(c2C)CO[Si]3(C(C)C)C(C)C)cc1C assigned_category=LOW
compound=CO[C@H]1O[C@H](CO)[C@@H](OC(=O)Nc2ccccc2)[C@@H]2OC(=O)[C@@H](Cc3ccccc3)C/C=C/C[C@H](Cc3ccccc3)C(=O)O[C@@H]12 assigned_category=LOW
compound=COCCOC(=O)N1C(=O)[C@@]2(c3cc(C#CCNC(N)=O)ccc31)[C@H](C(=O)Nc1nc3ccccc3s1)[C@H]1C(=O)O[C@H](c3ccccc3)[C@H](c3ccccc3)N1[C@@H]2c1ccc(O)cc1 assigned_category=HIGH
compound="COC(=O)C1(CC(C)C)C=C2C(=C(C)C(=O)C2C)CN1 (stereo not drawn)" assigned_category=LOW
compound=C=CCOC(=O)[C@@H]1[C@H]2C(=O)O[C@H](c3ccccc3)[C@H](c3ccccc3)N2[C@H](c2ccc(OCCOC(=O)[C@H]3C[C@H]4C(=O)N[C@@H](CCCCN(C)C)C(=O)N4[C@H]3c3cccc(OCCO)c3)cc2)[C@@]12C(=O)Nc1ccccc12 assigned_category=LOW
compound=COCCCNC(=O)[C@]1(Cc2ccccc2N=[N+]=[N-])N=C(c2ccc(OCCCO)cc2)O[C@@H]1c1ccccc1 assigned_category=HIGH
compound=O=C(NCCN1CCOCC1)[C@@H]1c2ccccc2C(=O)N(CC23CC4CC(CC(C4)C2)C3)[C@H]1c1ccc(CO)cc1 assigned_category=HIGH
compound="CC1CC/C=C\\[C@H]2OC34C=CCN(C(C)C)C(=O)[C@H]3N(C(C)CO)C(=O)[C@@H]4C2C(=O)O1 (stereo partly drawn)" assigned_category=LOW
compound="[N-]=[N+]=Nc1ccccc1C[C@@]1(C(=O)NCC(O)CO)N=C(c2ccc(OCCCO)cc2)O[C@@H]1c1ccccc1N=[N+]=[N-] (stereo partly drawn)" assigned_category=MEDIUM
compound=O=C1O[C@H](c2ccccc2)[C@H](c2ccccc2)N2[C@H]1[C@@H](C(=O)O)[C@]1(C(=O)Nc3ccc(C#CC4(O)CCCCCC4)cc31)[C@H]2c1ccccc1OCCO assigned_category=HIGH

---

Measured z-score, listed per entry for reference.
# MEASUREMENT DESCRIPTION: S. cerevisiae growth modulation with rapamycin, primary screen, strain BY4716, OD600, 96 h (AID 1091); note: test concentration not given here
# PROTOCOL CONDITIONS: higher = more signal, called active from +8 up or from −8 down
MEASURED ENDPOINT: z-score

compound=Cc1ccc(S[C@]2(C(=O)NCc3ccccc3)CC(=O)N(Cc3ccccc3Cl)[C@@H]2c2ccc(CO)cc2)cc1 measured_endpoint=z-score val=0.227
compound="CC1CC/C=C\\[C@H]2OC34C=CCN(C(C)C)C(=O)[C@H]3N(C(C)CO)C(=O)[C@@H]4C2C(=O)O1 (stereo partly drawn)" measured_endpoint=z-score val=-0.448
compound=CC(C)N1C(=O)[C@@]2(Cc3ccccc31)c1ccccc1C(=O)N(Cc1ccccc1)[C@H]2c1ccc(CO)cc1 measured_endpoint=z-score val=-0.204
compound="CCCCN1CC=CC23O[C@@H]4/C=C\\CCCOC(=O)C4[C@H]2C(=O)N(CCCCCCO)[C@@H]3C1=O (stereo partly drawn)" measured_endpoint=z-score val=-0.771
compound=COCCOC(=O)N1C(=O)[C@@]2(c3cc(C#CCNC(N)=O)ccc31)[C@H](C(N)=O)[C@H]1C(=O)O[C@H](c3ccccc3)[C@H](c3ccccc3)N1[C@@H]2c1ccc(O)cc1 measured_endpoint=z-score val=0.449
compound=[N-]=[N+]=NCc1ccccc1[C@H]1OC(c2ccc(OCCCO)cc2)=N[C@@]1(Cc1ccccc1N=[N+]=[N-])C(=O)O measured_endpoint=z-score val=-1.66
compound="CC1C2C(CCCO)=CC(C3C(=O)N(C)C(=O)C23)N1Cc1cccc(OC(F)(F)F)c1 (stereo not drawn)" measured_endpoint=z-score val=1.61
compound=CC(C)(C)OC(=O)N1[C@@H](C=C(Br)Br)COC1(C)C measured_endpoint=z-score val=-1.27
compound=C=C(CC1([C@@H](NP(=O)(c2ccccc2)c2ccccc2)[C@H]2C[C@@H]2CCCC)CC1)c1cccc(OC)c1 measured_endpoint=z-score val=1.82
compound=COC(=O)[C@@]1(Cc2ccc(F)cc2)[C@H]2c3cc(C(=O)N4CCCC4)n(Cc4ccc(C(F)(F)F)nc4)c3C[C@H]2CN1C(=O)c1ccccc1 measured_endpoint=z-score val=3.82
compound=COCCOC(=O)N1C(=O)[C@@]2(c3cc(C#CCCO)ccc31)[C@H](c1ccc(O)cc1)N1[C@H](c3ccccc3)[C@H](c3ccccc3)OC(=O)[C@H]1[C@@H]2C(=O)NC[C@H](O)c1ccccc1 measured_endpoint=z-score val=3.26
compound="C=C(C)C1CN([C@H](CO)c2ccccc2)C(=O)/C1=C\\c1ccccc1 (stereo partly drawn)" measured_endpoint=z-score val=-0.481
compound=COc1cccc(C)c1NC(=O)O[C@H]1[C@H](OC(=O)Nc2ccc3c(c2)OCO3)[C@H](OC(=O)Nc2ccc3c(c2)OCO3)[C@@H](OC)O[C@@H]1CO measured_endpoint=z-score val=4.29
compound=COC(=O)[C@@]1(Cc2ccc(F)cc2)[C@H]2c3cc(C(=O)N(C)C)n(Cc4ccsc4Br)c3C[C@H]2CN1C(=O)c1ccccc1 measured_endpoint=z-score val=1.37
compound=C=C(CCCC)C(=O)CC[C@@H](OC(C)=O)c1ccc(OCCO)cc1 measured_endpoint=z-score val=-0.679
compound="C=CCC(OC(C)=O)[C@@H]1[C@@H](N(Cc2ccc(-c3ccccc3)cc2)C(=O)Cc2ccc(OC)cc2)c2cc(OCCCO)ccc2N1C(=O)c1ccc2ccccc2c1 (stereo partly drawn)" measured_endpoint=z-score val=-0.193
compound=C[C@]1(C(=O)NC2CC2)c2ccccc2C(=O)N(Cc2cc(F)cc(C(F)(F)F)c2)[C@H]1c1ccc(CO)cc1 measured_endpoint=z-score val=0.217
compound=C=C[C@H](OC)[C@@H](O)c1ccc(OC)c(O)c1 measured_endpoint=z-score val=-0.0251
compound=CC(C)C[C@@H]1NC(=O)[C@H]2C[C@@H](C(=O)O)[C@@H](c3cccc(OCCO)c3)N2C1=O measured_endpoint=z-score val=-0.529
compound=COCCOC(=O)N1C(=O)[C@@]2(c3cc(C#CCC(C(=O)OC)C(=O)OC)ccc31)[C@H](C(=O)N1CCc3cc(OC)c(OC)cc3C1)[C@H]1C(=O)O[C@H](c3ccccc3)[C@H](c3ccccc3)N1[C@@H]2c1ccccc1OCCO measured_endpoint=z-score val=4.36
compound=COC(=O)c1c2oc(c1C(=O)OC)C(=O)N[C@H](Cc1ccccc1)Cn1cc(nn1)C1(CCCCC1)NC(=O)N[C@H](CO)CC2 measured_endpoint=z-score val=-0.691
compound=COC(=O)C(CC#Cc1ccc2c(c1)[C@]1(C(=O)N2)[C@H](C(N)=O)[C@H]2C(=O)O[C@H](c3ccccc3)[C@H](c3ccccc3)N2[C@@H]1c1ccccc1OCCO)C(=O)OC measured_endpoint=z-score val=5.37
compound=O=C1O[C@H](c2ccccc2)[C@H](c2ccccc2)N2[C@H]1[C@@H](C(=O)N1CCCCCCC1)[C@]1(C(=O)Nc3ccc(C#CCCO)cc31)[C@H]2c1ccc(O)cc1 measured_endpoint=z-score val=1.45
compound=CCOC(=O)C[C@H]1[C@H](OC(=O)c2cc3ccccc3oc2=O)[C@@H](NC(=O)c2ccc(-c3ccccc3)cc2)c2cc(OCCCO)ccc2N1C(=O)Cc1ccc(OC)cc1 measured_endpoint=z-score val=-0.077
compound=CN(C)CCCCNC(=O)[C@H]1C[C@H]2C(=O)N[C@@H](CCCCN(C)C)C(=O)N2[C@H]1c1ccc(O)cc1 measured_endpoint=z-score val=-1.41
compound="CC1C2C(CCCO)=CC(C3C(=O)N(C(N)=O)C(=O)C23)N1Cc1cccc(OC(F)(F)F)c1 (stereo not drawn)" measured_endpoint=z-score val=0.58
compound=COc1cc(Cc2cc3c(c(-c4ccccc4)n2)[Si](C(C)C)(C(C)C)OC3)cc(OC)c1OC measured_endpoint=z-score val=-0.573
compound=O=C1O[C@@H](c2ccccc2)[C@@H](c2ccccc2)N2[C@@H](c3ccccc3OCCO)[C@]3(C(=O)Nc4ccc(C#CC5(O)CCCCCC5)cc43)[C@@H](C(=O)N3CCCCCCC3)[C@H]12 measured_endpoint=z-score val=2.57
